Attribution: patent US8507460B2

Experimental Protocol: Plasma and liver pharmacokinetics following a single oral dose in mice (Example 6)
Format: in vivo
Condition Description: mouse, plasma; CD-1 mice, oral 25 mg/kg; 1a average of N = 2; read-out: Plasma prodrug Tmax
Property Name: Tmax (h)
Unit h implied. Number only.

Report Tmax for CCOc1nc(N)nc2c1ncn2[C@@H]1O[C@@H]2COP(=O)(OC(C)C)O[C@H]2[C@@]1(C)O (single isomer, unassigned) [Compound 1a] please.
3

====

Experimental Protocol: Plasma and liver pharmacokinetics following a single oral dose in monkeys (Example 6)
Type: in vivo
Condition Description: cynomolgus monkey, plasma; Cynomolgus monkeys, single oral dose (mg/kg per Table 6: 1a 10, A 25, B 10, C 10, D 50); read-out: Plasma prodrug Tmax
A collection of molecules and their measured Tmax
Answer with a number only, understood to be in h.

CCOc1nc(N)nc2c1ncn2[C@@H]1O[C@@H]2COP(=O)(OC(C)C)O[C@H]2[C@@]1(C)O (single isomer, unassigned): 2

Shift focus to the following entry.
Fill in: Tmax of CCOc1nc(N)nc2c1ncn2[C@@H]1O[C@@H]2COP(=O)(OC(C)C)O[C@H]2[C@@]1(C)F (some centres unmarked) is ___
2
